Listed here: items and their measured pIC50.
- tgt: human norepinephrine transporter (Homo sapiens, UniProt P23975)
- Construct: expressed in transfected cells; host or cells: HEK cells (HEK-hNET)
- Sequence (P23975 whole entry): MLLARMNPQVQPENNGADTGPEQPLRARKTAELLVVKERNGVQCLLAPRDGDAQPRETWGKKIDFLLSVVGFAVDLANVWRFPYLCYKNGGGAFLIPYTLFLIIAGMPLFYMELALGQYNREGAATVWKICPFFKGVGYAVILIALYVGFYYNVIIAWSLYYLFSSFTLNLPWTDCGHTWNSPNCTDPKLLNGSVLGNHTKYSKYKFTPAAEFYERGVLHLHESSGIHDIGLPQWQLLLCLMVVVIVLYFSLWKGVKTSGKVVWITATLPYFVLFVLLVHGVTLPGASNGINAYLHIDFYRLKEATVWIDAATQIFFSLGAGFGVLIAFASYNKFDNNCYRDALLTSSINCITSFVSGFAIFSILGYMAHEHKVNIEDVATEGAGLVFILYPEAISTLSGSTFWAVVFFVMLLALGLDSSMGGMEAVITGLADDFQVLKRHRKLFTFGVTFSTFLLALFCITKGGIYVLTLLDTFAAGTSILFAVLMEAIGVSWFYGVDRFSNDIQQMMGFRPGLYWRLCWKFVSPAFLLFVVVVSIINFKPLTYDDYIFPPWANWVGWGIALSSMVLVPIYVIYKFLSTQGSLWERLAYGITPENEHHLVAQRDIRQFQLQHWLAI
- experimental.details: cell-based
- Format: cell-based
- reported.conditions: HEK-hNET cells; read-out: Inhibition of NE uptake, IC50
API: returns pIC50 as number; meaning -log10 of concentration in mol/L.

- compound: "CC(C)(C)NC1CC(c2ccc(Cl)c(Cl)c2)c2ccccc21 (centres unmarked) [Compound 6]"
  tgt: "human norepinephrine transporter (Homo sapiens, UniProt P23975)"
  val: 6.51

Next compound, please.
Prompt: What does the data say about its pIC50? Entry: CCCNC1CC(c2ccc(Cl)c(Cl)c2)c2ccccc21 (centres unmarked) [Compound 9]
Response: 7.12
